test system: BRAPP (broadleaf signalgrass); assay: Pre-plant incorporated (PPI) herbicidal activity, warm season; format: in vivo, Brachiaria platyphylla; conditions: pre-plant incorporated; lowest tested rate with 80% or greater inhibition; about 14 days
parameter.measured: PPI activity GR80, BRAPP (g/ha)
The reply should be a number in g/ha, with the unit left off.

> print(dat)
                               input.smiles        parameter.measured  reading.unit  numeric.value
1  C=C(CC(F)(F)S(=O)(=O)c1ncn(C(=O)N(CC)CC)n1)C[Si](C)(C)C  PPI activity GR80, BRAPP          g/ha            100
2  CCSC(F)(F)S(=O)(=O)c1ncn(C(=O)N(CC)CC)n1  PPI activity GR80, BRAPP          g/ha             30
3  C=C(Br)CC(F)(F)S(=O)(=O)c1ncn(C(=O)N(CC)CC)n1  PPI activity GR80, BRAPP          g/ha            300
4   CCN(CC)C(=O)n1cnc(S(=O)(=O)C(F)(F)Br)n1  PPI activity GR80, BRAPP          g/ha            100
5  CCN(CC)C(=O)n1cnc(S(=O)(=O)C(F)(F)SCC(=O)OC)n1  PPI activity GR80, BRAPP          g/ha            300
6  C=C(C)CC(F)(F)S(=O)(=O)c1ncn(C(=O)N(CC)CC)n1  PPI activity GR80, BRAPP          g/ha            100
7  C=CCC(F)(F)S(=O)(=O)c1ncn(C(=O)N(CC)CC)n1  PPI activity GR80, BRAPP          g/ha            100
8  CCN(CC)C(=O)n1cnc(S(=O)(=O)C(F)(F)C(=O)c2ccccc2)n1  PPI activity GR80, BRAPP          g/ha            300

Reported PPI activity GR80, BRAPP ( `CCN(CC)C(=O)n1cnc(S(=O)(=O)C(F)(F)C(F)F)n1` ) = 10

The recorded PPI activity GR80, BRAPP for `CCN(CC)C(=O)n1cnc(S(=O)(=O)C(F)(F)SCCOC)n1` is 100

The compound listed as `CCN(CC)C(=O)n1cnc(S(=O)(=O)C(F)F)n1` has a reported PPI activity GR80, BRAPP of 100

====

system: LAMPU (purple deadnettle); assay: Pre-plant incorporated (PPI) herbicidal activity, cool season; format: in vivo, Lamium purpureum; details: pre-plant incorporated; lowest tested rate with 80% or greater inhibition; about 14 days
PPI activity GR80, LAMPU reference
Dear colleague, please return just the value in g/ha, with no unit written.

Example cases with answers are listed next.
> print(dat)
                                   compound         measurement.target        parameter.measured  numeric.value
1  CCN(CC)C(=O)n1cnc(S(=O)(=O)C(F)(F)Br)n1 [Example 1]  LAMPU (purple deadnettle)  PPI activity GR80, LAMPU            100
2  CCN(CC)C(=O)n1cnc(S(=O)(=O)C(F)(F)C(=O)c2ccccc2)n1 [Example 6]  LAMPU (purple deadnettle)  PPI activity GR80, LAMPU            300
3  CCN(CC)C(=O)n1cnc(S(=O)(=O)C(F)(F)SCC(=O)OC)n1 [Example 11]  LAMPU (purple deadnettle)  PPI activity GR80, LAMPU            300
4  C=C(Br)CC(F)(F)S(=O)(=O)c1ncn(C(=O)N(CC)CC)n1 [Example 19]  LAMPU (purple deadnettle)  PPI activity GR80, LAMPU            100

Data point: C=C(CC(F)(F)S(=O)(=O)c1ncn(C(=O)N(CC)CC)n1)C[Si](C)(C)C [Example 20] ; PPI activity GR80, LAMPU = 100
